- method-notes: NCI Yeast Anticancer Drug Screen. Data for the bub3 strain (AID 167)
- experimental-conditions: S. cerevisiae bub3 mutant strain, at 33.0 µM, stronger effect = higher value
- Experimental: Growth inhibition of yeast strains with defined genetic alterations is measured as a screen for potential anti-cancer activity. Selected strains with alterations in DNA damage repair or cell cycle control were exposed to compounds and growth inhibition was measured relative to vehicle treated controls. The strain used in this assay is bub3
About 79,000 compounds went through this panel and 15% of them were active in at least one assay; those are over-represented in the sample as a whole.

compound: CC1=CC(=C(c2ccc(N)cc2)c2ccc(N)cc2)C=CC1=N
readout-unit: %
growth inhibition: 12

compound: CCCOC(=O)C(F)C(Br)C(=O)OCCC (stereo not drawn)
readout-unit: %
growth inhibition: 96

compound: COC(=O)NC1C(C)OC(OC2C/C=C(/C)C3C=CC4C(OC5CC(OC6CC(O)C(OC7CC(O)C(OC)C(C)O7)C(C)O6)C(O)C(C)O5)C(C)CC(C)C4C3(C)/C(O)=C3\C(=O)OC4(CC(C)C(CO)=CC4/C=C\2C)C3=O)CC1(C)[N+](=O)[O-] (stereo not drawn)
readout-unit: %
growth inhibition: 9

compound: O=C(NCCCNCCN1C(=O)c2cccc3cc([N+](=O)[O-])cc(c23)C1=O)c1cc(-c2ccccc2)nc2ccccc12
readout-unit: %
growth inhibition: 9

compound: CC(C)OC(=O)Nc1ccc2nc(-c3cscn3)[nH]c2c1
readout-unit: %
growth inhibition: 25

compound: CCC(C)NC1=NCC(C)S1 (stereo not drawn)
readout-unit: %
growth inhibition: -16

compound: C/C(=N\Nc1ccc([N+](=O)[O-])cc1[N+](=O)[O-])c1sc(-n2nc(-c3ccccc3)cc2-c2ccccc2)nc1C
readout-unit: %
growth inhibition: 42

compound: CSc1nnc(SC)nn1
readout-unit: %
growth inhibition: 90

compound: Cc1ccc(NC(c2ccccc2)c2ccc3cccnc3c2O)cc1 (stereo not drawn)
readout-unit: %
growth inhibition: 8

compound: O=C1C(Br)=C(c2ccccc2)O/C1=C/C(=O)c1ccc(Br)cc1
readout-unit: %
growth inhibition: 6

compound: Cc1c2cc[n+](Cc3ccc(I)cc3)cc2c(C)c2c1[nH]c1ccccc12
readout-unit: %
growth inhibition: 96

compound: CCc1cc(O)c(Cl)c(C)c1Cl
readout-unit: %
growth inhibition: 31

compound: C=C1CC(CCCl)(c2ccccc2)OC1=O (stereo not drawn)
readout-unit: %
growth inhibition: 96

compound: O=C1Nc2ccccc2/C1=C/c1ccccc1
readout-unit: %
growth inhibition: 9

compound: Oc1ccc2ccccc2c1CCc1c(O)ccc2ccccc12
readout-unit: %
growth inhibition: 93

compound: Cc1csc(=S)n1OC(=O)NC1CCCCC1
readout-unit: %
growth inhibition: 100

compound: CCCCCCCCCCCC1N=C(N)NC(CCCO)=C1C(=O)OC (stereo not drawn)
readout-unit: %
growth inhibition: 98

compound: COc1ccc(/C=C2\NC(=S)N(/C=C3\C(=O)Oc4ccccc4C3=O)C2=O)cc1
readout-unit: %
growth inhibition: 4

* * *

- method-notes: NCI Yeast Anticancer Drug Screen. Data for the mec2-1 strain (AID 157)
- experimental-conditions: S. cerevisiae mec2-1 strain, at 50.0 µM, stronger effect = higher value
Compounds without any hit were thinned out: in the full panel of roughly 79,000, 15% have a hit.
attribute-measured: growth inhibition (%)

molecule: COc1ccc(C(NCCNC(c2ccc(OC)c(OC)c2)c2cc3c(cc2O)OCO3)c2cc3c(cc2O)OCO3)cc1OC (centres undefined)
numeric-readout: 27.9
//
molecule: Cn1c(-c2ccc(/C=N\N3CCN(/N=C/c4ccc(-c5c[n+]6ccccc6n5C)cc4)CC3)cc2)c[n+]2ccccc12
numeric-readout: 25.4
//
molecule: Cc1cccc(C(C)(C)C)c1NC(=O)C(C#N)C1=C(Cl)C(=O)c2ccccc2C1=O (centres undefined)
numeric-readout: 90.5
//
molecule: CCCCCCCCCCCC1=NCCO1
numeric-readout: 46.3
//
molecule: O=C1C(=O)c2ccccc2C(O)=C1C(C1=C(O)c2ccccc2C(=O)C1=O)c1ccc(Cl)cc1
numeric-readout: 72.2
//
molecule: Cc1c2cccc(Sc3ccccc3)c2c2c3c(cccc13)[S+](c1ccccc1)C2 (centres undefined)
numeric-readout: 93.5
//
molecule: C(=Nc1ccc(-c2cc(-c3ccccc3)nc3ccc4ccccc4c23)cc1)c1ccccc1
numeric-readout: 33
//
molecule: CCOc1ccccc1N=Cc1c2ccccc2cc2ccccc12
numeric-readout: 90.8
//
molecule: COc1cccc2c1C(=O)c1c(O)c3c(c(O)c1C2=O)C[C@@](O)(C(C)=O)C[C@@H]3OC1CC(OC(C)=O)C(OC(C)=O)C(C)O1 (some centres undefined)
numeric-readout: 60
//
molecule: CC1=C(C(=O)NCc2ccccc2)C(c2ccccc2)C(C(=O)NCc2ccccc2)=C(C)N1
numeric-readout: 93.3
//
molecule: N/C(=N/N=C/c1cc(Br)cc(Br)c1O)NO
numeric-readout: 85.8
//
molecule: Oc1ccc(SCc2ccc(NCc3ccccc3)cc2)cc1
numeric-readout: 87.1
//
molecule: O=[N+]([O-])c1cc(S(=O)(=O)Nc2ccccc2)ccc1Nc1ccccc1
numeric-readout: 81.2
//
molecule: CN(C)c1ccc(C2CC(C)(O)Oc3cc4c(cc32)OCO4)cc1 (centres undefined)
numeric-readout: 14.3
//
molecule: CCCC(O)C1CC(C(C)C)CCC1C (centres undefined)
numeric-readout: 75.5
//
molecule: O=[N+]([O-])c1cccc2nc3ccccc3c(NCCC[N+]3([O-])CCCCC3)c12
numeric-readout: 96
//
molecule: O=C(CC(=O)n1nc(-c2ccccc2)c(N=Nc2ccc(Cl)cc2)c1-c1ccccc1)Nc1cccc(Cl)c1
numeric-readout: 46
//
molecule: NC(N)=NS(=O)(=O)c1ccc(Nc2c3ccccc3nc3c(C(=O)NCCO)cccc23)cc1
numeric-readout: -21.9
//
molecule: O=C1c2ccccc2C(=O)N1CCCC(=O)n1cc(F)c(=O)[nH]c1=O
numeric-readout: 83.2

Source: PubChem BioAssay (NCI)
